# System: UO-31 renal
# protocol_description: NCI tumour cell line growth inhibition, 48 h
TGI values for the molecules below.

Some molecules with known TGI results, for comparison:
c1cc(C2CCCCC2)ccc1-c1cnc2nonc2n1 : 2.44 µM
COc1ccc2c(CCCc3ccc(Cl)cc3Cl)c3[n+](cc2c1OC)CCc1cc2c(cc1-3)OCO2 : 3.08 µM
Nn1c(-c2cccc(Cl)c2)nc2ccccc2c1=O : > 100 µM
Cc1c(Cl)cccc1NC(=O)c1sc2nc3c(cc2c1N)C(=O)CCC3 : > 91.5 µM
CCCCSc1nc(N)c2cn[nH]c2n1 : > 80.4 µM

// next entry
Summary for this molecule, O=C(/C=C/c1ccccc1)c1cc(C(=O)/C=C/c2ccccc2)c(O)cc1O : TGI is > 100 µM
